Origin of measurements: PubChem BioAssay

- target-or-system: Fibroblast growth factor 10 (Homo sapiens) (UniProt O15520)
- Sequence (O15520 whole entry, looked up): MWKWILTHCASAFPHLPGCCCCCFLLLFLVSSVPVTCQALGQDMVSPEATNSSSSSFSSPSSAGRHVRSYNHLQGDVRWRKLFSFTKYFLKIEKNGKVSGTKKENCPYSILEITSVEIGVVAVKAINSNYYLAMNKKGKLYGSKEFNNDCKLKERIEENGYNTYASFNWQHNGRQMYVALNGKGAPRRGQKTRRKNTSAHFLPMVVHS
- test-details: compounds binding fibroblast growth factor 10 – biochemical, small-molecule microarray, 635 nm fluorescence, primary screen (AID 1102)
- condition-notes: FGF10 binding, fluorescence 635 nm, higher = more signal
Catalogue of composite z-score readings, one per entry.
observable: composite z-score

molecule	reported-result
C=CCC(OC(C)=O)[C@@H]1[C@@H](N(Cc2ccc(-c3cccc(C(F)(F)F)c3)o2)C(=O)c2ccc(C)cc2)c2cc(OCCCO)ccc2N1C(=O)c1ccc2ccccc2n1 (some centres not stated)	0.453
CCCCC(=C=CC[C@H](O)c1ccccc1OCCO)C[C@H](O)c1cc(Cl)cc(Cl)c1O	0.345
COc1c(C)cc(-c2cc3c(c(-c4ccccc4)n2)[Si](C(C)C)(C(C)C)O[C@H]3c2ccccc2)cc1C	0.397
CN(C)CCCC[C@@H]1NC(=O)[C@@H]2C[C@H](C(=O)NCc3ccc(F)cc3)[C@H](c3cccc(OCCO)c3)N2C1=O	1.36
CC(C)C(CO)N1C(=O)[C@@H]2[C@H]3C(=O)OCC=C[C@H]3OC23C=CCN(c2ccc4ccccc4c2)C(=O)[C@@H]13 (some centres not stated)	-0.617
C[C@H]1C2[C@H](Cc3ccccc3)NC(=O)[C@]23C(=O)N[C@H](Cc2ccccc2)C(=O)N[C@H](Cc2ccccc2)C(=O)NC/C=C/CCC/C=C/C3[C@@H]2O[C@]12C (some centres not stated)	0.398
C=C[C@@H](C)[C@@H](OC(=O)Nc1ccc(OC)cc1)c1ccc(O)c2ccccc12	0.856

----------
- target-or-system: Calmodulin-1 (Homo sapiens) (UniProt P0DP23)
- test-details: small molecules binding calmodulin-1 with EGTA – biochemical, small-molecule microarray, Cy5-labelled CALM1, profiling panel (AID 1111);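 further: labelled calmodulin applied in Tris saline Tween buffer holding calcium plus EGTA and DTT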
- condition-notes: Cy5-CALM1 binding fluorescence, higher = more signal
Catalogue of composite z-score readings, one per entry.
observable: composite z-score

>>> df
                                smiles_text         observable  reported_result
0  CCOC(=O)C[C@H]1[C@H](OC(=O)c2ccc(C(=O)c3ccccc3)cc2)[C@@H](NC(=O)c2ccc3ccccc3n2)c2cc(OCCCO)ccc2N1C(=O)c1ccc2ccccc2n1  composite z-score            0.338
1  COc1ccccc1CN1C(=O)c2ccccc2[C@](Cc2ccccc2I)(C(=O)NC2CC2)[C@@H]1c1ccc(CO)cc1  composite z-score            0.654
2  C[N+](C)(C)CCCC[C@@H]1NC(=O)[C@@H]2C[C@H](C(=O)NCCCCCCNC(=O)CS)[C@H](c3cccc(OCCO)c3)N2C1=O  composite z-score           -0.485
3  C=C(CCCC)/C(=C/C[C@@H](OC(=O)c1ccncc1)c1ccc(CO)o1)c1cc(C(=O)OC)ccc1OC  composite z-score             1.19

----------
- test-details: probe aNog binding to arrayed compounds – biochemical, biotinylated probe, 635/667 nm fluorescence, primary screen (AID 1115);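 further: probe is biotinylated aNog protein used at 0.15 µg/mL for 1 h at 4 C; z-score combines 667 nm fluorescence of each spot with its signal to noise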
- condition-notes: small-molecule microarray, higher = more signal
Catalogue of composite z-score readings, one per entry.
observable: composite z-score

compound	observable	reported-result
C[n+]1ccc2ccc(O)cc2c1	composite z-score	-0.323
CCCCCCCCCCC(O)C1C=CC2C(=O)N(c3ccccc3)C(=O)C2N1Nc1ccc([N+](=O)[O-])cc1 (configuration not stated)	composite z-score	1.1
COc1ccc(C(=O)Nc2cccc(CN3C(=O)[C@@]4(O[C@@H](CCn5cc([C@H](O)c6ccccc6)nn5)[C@H]([Si](C)(C)c5ccc(OC)cc5)[C@H]4C)c4ccccc43)c2)cc1	composite z-score	-0.205
O=C1O[C@H](c2ccccc2)[C@H](c2ccccc2)N2[C@H]1[C@@H](C(=O)Nc1nc3ccccc3s1)[C@]1(C(=O)Nc3ccc(C#CC4=CCCCC4)cc31)[C@H]2c1ccc(OCCO)cc1	composite z-score	1.37
COC(=O)[C@@]1(Cc2ccc(OC)cc2)[C@H]2c3cc(C(=O)N(C)C)n(Cc4ccc(OC)c(OC)c4)c3C[C@H]2CN1C(=O)c1ccccc1	composite z-score	1.03
CCCCN1CC=CC23O[C@@H]4/C=C\CCCOC(=O)C4[C@H]2C(=O)N(C(C)CO)[C@@H]3C1=O (some centres not stated)	composite z-score	-0.186
O=S(=O)(NCCCO)c1ccc(Br)cc1	composite z-score	-0.122
